Target: UniProt:P51684
Experiment: potency against CXCR6 with APJ panel – cell-based, beta-arrestin, DiscoveRx, uHTS hits, dose response (AID 624129)
Conditions: CXCR6 beta-arrestin (DiscoveRx) antagonist cell assay, CCR6, run 2, dose range 1
Recorded pIC50, one value per entry.
For clarity, pIC50 is expressed as the negative log10 of concentration in mol/L.

> print(dat)
                                   molecule  observed.value
1  CNc1ccc2oc(C[C@H]3O[C@@]4(CC[C@H]3C)O[C@H]([C@H](C)C(=O)c3ccc[nH]3)[C@H](C)C[C@H]4C)nc2c1C(=O)O            5.21
2          NC(=S)N/N=C/c1ncc(C(F)(F)F)cc1Cl            5.13
3  CC(Oc1ccc(Br)cc1)C(=O)Nc1nc(-c2ccccn2)cs1 (stereo not given)            5.11
4  C=C1C(=O)C23CCC4C(C)(C(=O)OC)CCCC4(C)C2CCC1(O)C3 (stereo not given)            5.24
5  COC(=O)C1=C(c2ccc(-c3ccccc3)c(F)c2)C[C@@H]2CC[C@H]1N2C(=O)N1CCC(C)CC1            4.94
6  CCC(=O)OCCNc1cc(Sc2nc3ccccc3[nH]2)c2nonc2c1[N+](=O)[O-]            5.34

Fill in the blank: the reported pIC50 of "O=C(NNC(=O)C12CC3CC(CC(C3)C1)C2)c1ccccn1" is ____.
5.08

Likewise for "O=C(C#Cc1ccccc1)c1ccco1" ?
4.99

# repeat for CC(C)N=C1CCCC1C(=S)SSC(=S)C1CCCC1=NC(C)C (stereo not given)
4.94

###

Molecular target: Apelin receptor (Homo sapiens)
Experiment: potency against CXCR6 with APJ panel – cell-based, beta-arrestin, DiscoveRx, uHTS hits, dose response (AID 624129)
Settings: CXCR6 beta-arrestin (DiscoveRx) antagonist cell assay, APJ, run 3, dose range 1
Classify: class 1 when IC50 is strictly less than 7 µM; class 0 when IC50 is not.

Take a look at these entries with their results.
compound	subject_of_test	category_label
Cc1nc2c(-c3ccc(Cl)cc3)c(C)[nH]n2c(=O)c1Cc1ccccc1	Apelin receptor (Homo sapiens)	class 0
COc1ccc(C(=O)/C=C/C(=O)N(CC(=O)NC2CCCCC2)Cc2ccccc2)c(O)c1	Apelin receptor (Homo sapiens)	class 0
COc1cc(C(=O)NC2CC3CCCC(C2)N3CC(=O)Nc2ccccc2)cc(OC)c1OC (stereo not given)	Apelin receptor (Homo sapiens)	class 0
Cc1c(Cl)sn(-c2ccc(Cl)cc2)c1=O	Apelin receptor (Homo sapiens)	class 0
CCOC(=O)c1c(C)oc2c1c(C=NCc1ccccn1)c(O)c1ccccc12	Apelin receptor (Homo sapiens)	class 0

Is IC50 strictly under 7 µM for the entry "COc1ccccc1-c1cc(C(F)(F)F)nc(S(=O)(=O)CCCC(=O)NCc2ccc(F)cc2)n1" ?
class 0

Here is the next compound: CCS(=O)(=O)c1ncc(Cl)c(C(=O)Nc2ccc(S(=O)(=O)N3CCCC(C)C3)cc2)n1 (stereo not given)
class 0

// same read-out, input: CN(C(=O)CSC1=Nc2ccccc2C2=NC(c3ccccc3)C(=O)N12)C1CCCCC1 (stereo not given)
class 0

Let us now turn to "CCCCOc1ccc(C(=O)NNC(=S)NC(=O)CC)cc1"
class 0

For COc1ccc(NC(=O)/C(Cl)=C(/Cl)S(=O)Cc2ccccc2)cn1 (stereo not given) then?
class 0

###

Target: C-X-C chemokine receptor type 6 (Homo sapiens) (UniProt O00574)
Sequence (O00574 whole entry, looked up): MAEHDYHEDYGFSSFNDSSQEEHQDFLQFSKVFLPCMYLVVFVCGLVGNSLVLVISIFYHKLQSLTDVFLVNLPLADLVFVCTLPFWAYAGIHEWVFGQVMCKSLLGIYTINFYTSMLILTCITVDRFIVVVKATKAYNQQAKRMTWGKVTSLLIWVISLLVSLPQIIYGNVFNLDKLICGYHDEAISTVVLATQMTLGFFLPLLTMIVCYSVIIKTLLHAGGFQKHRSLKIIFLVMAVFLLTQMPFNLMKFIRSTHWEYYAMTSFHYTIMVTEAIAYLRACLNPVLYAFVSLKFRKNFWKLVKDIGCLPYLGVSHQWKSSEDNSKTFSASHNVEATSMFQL
Experiment: potency against CXCR6 with APJ panel – cell-based, beta-arrestin, DiscoveRx, uHTS hits, dose response (AID 624129)
Conditions: CXCR6 beta-arrestin (DiscoveRx) antagonist cell assay, CXCR6, dose range 1, mean IC50 across replicates
Measured pIC50 values are reported for all entries that follow.
In textbook form, pIC50 equals minus log to base ten of the concentration in mol/L.

> print(dat)
                                   molecule  observed.value
1  O=C(COC(=O)C1CCN(S(=O)(=O)c2cccs2)CC1)c1cc2ccccc2o1            4.77

Look at this molecule and give its reported pIC50. "CCN1/C(=C\C=C2\C(=O)N(c3ccccc3)C(=S)N2C)Sc2ccccc21"
5.20

Do the same for "COc1cc(/C=C2\SC(=O)N(c3ccc(Cl)cc3)C2=O)cc([N+](=O)[O-])c1O" please
4.69

Item: "Cc1ccc2c(C)ccc(O)c2n1"
5.29

What do you get for "Cc1cccc(CS(=O)(=O)c2ncc(Cl)c(C(=O)NCc3ccc4c(c3)OCO4)n2)c1" ?
4.77

And then "CCC(=O)OCCNc1cc(Sc2nc3ccccc3[nH]2)c2nonc2c1[N+](=O)[O-]" , what is it?
5.25

What do you get for "CN(c1ccccc1)S(=O)(=O)c1ccc(NC(=O)c2nc(S(C)(=O)=O)ncc2Cl)cc1" ?
5.13

Here is the next molecule: "O=C(NC(=S)Nc1ccccc1O)c1cccnc1"
4.52

What about "C=CS(=O)(=O)c1ccc(Oc2ccc(S(=O)(=O)C=C)cc2)cc1" ?
4.97

# iterate: "O=C1c2sc3nc4ccccc4n3c2C(=O)N1c1ccccc1Cl"
4.68

###

Below: a set of entries, each annotated with reported IC50.
Target: Beta-galactosidase (Escherichia coli)
Assay: potency against CXCR6 with APJ panel – cell-based, beta-arrestin, DiscoveRx, uHTS hits, dose response (AID 624129)
Details: CXCR6 beta-arrestin (DiscoveRx) antagonist cell assay, b-galactosidase, dose range 1, mean IC50 across replicates

Examples with answers:
> print(dat)
                                   compound                        subject.of.test  quantity.kind  observed.value
1  CCC(=O)OCCNc1cc(Sc2nc3ccccc3[nH]2)c2nonc2c1[N+](=O)[O-]  Beta-galactosidase (Escherichia coli)           IC50         27.1 µM
2  O=C1C(Cc2ccccc2)Nc2ncnc(N3CCN(c4ccccc4)CC3)c2N1Cc1ccc(Br)cc1 (stereo not given)  Beta-galactosidase (Escherichia coli)           IC50         > 80 µM
3  COc1ccc(C2CC(c3c(O)n(CCc4ccccc4)c(=O)[nH]c3=O)=NN2)cc1OC (stereo not given)  Beta-galactosidase (Escherichia coli)           IC50           52 µM

Can you look up the measured IC50 of O=C(c1nnsc1S(=O)c1ccc(Cl)cc1)N1CCOCC1 (stereo not given) for me?
> 80 µM

Try this compound next: CN(C(=O)CSC1=Nc2ccccc2C2=NC(c3ccccc3)C(=O)N12)C1CCCCC1 (stereo not given)
> 80 µM

Same thing, different compound: "O=C1C=CC2(O[C@H](c3ccccc3)[C@@H](c3ccccc3)O2)[C@H](Sc2ccccc2O)C1"
> 80 µM

And what about the compound "O=[N+]([O-])c1cc([N+](=O)[O-])c2cc3ccccc3nc2c1" ?
> 80 µM

Try the compound "O=C1CN(C(=O)CSc2nc3cc(Cl)ccc3c(=O)n2Cc2ccccc2)c2ccccc2N1"
> 80 µM

Now this one: "N#CC(C#N)=C1C=CC=CN1/C(=C\c1ccco1)C(=O)c1ccc(Cl)cc1"
15.1 µM

Now this one: "S=C(N/N=C/c1ccccc1)N1CCOCC1"
> 80 µM

###

Target: C-X-C chemokine receptor type 6 (Homo sapiens) (UniProt O00574)
Experiment: potency against CXCR6 with APJ panel – cell-based, beta-arrestin, DiscoveRx, uHTS hits, dose response (AID 624129)
Settings: CXCR6 beta-arrestin (DiscoveRx) antagonist cell assay, CXCR6, run 2, dose range 1
Each record here notes measured pIC50.
Bear in mind: pIC50 is minus log10 of a mol/L concentration; give just that figure.

Example compounds with recorded pIC50:
> print(dat)
                                   compound  observed.value
1  CC(=O)OCCNc1cc(Sc2nc3ccccc3[nH]2)c2nonc2c1[N+](=O)[O-]            5.22
2             O=c1oc2ccccc2c(Cl)c1CN1CCCCC1            5.11
3  CCC(=O)OCCNc1cc(Sc2nc3ccccc3s2)c2nonc2c1[N+](=O)[O-]            5.05
4              Cc1cccnc1Nc1nc(-c2ccccn2)cs1            6.06
5  COC(=O)c1ccc2c(c1)C(C)(C)C(/C=C/c1ccccc1O)=[N+]2C            4.87
6                  CN(C)c1nc(=NCc2cccs2)ss1            5.23
7  CCS(=O)(=O)c1ncc(Cl)c(C(=O)Nc2ccc(S(=O)(=O)N3CCC(C)CC3)cc2)n1            5.10
8  COc1ccc(OC)c(NC(=O)c2nc(S(=O)(=O)Cc3ccccc3)ncc2Cl)c1            5.06

Report pIC50 for "Cc1ccc(C(=O)CNc2ccc(F)cc2)cc1" tested on C-X-C chemokine receptor type 6 (Homo sapiens) (UniProt O00574).
6.40

Then what about the compound "CCCC(=O)OCCNc1cc(Sc2nc3ccccc3[nH]2)c2nonc2c1[N+](=O)[O-]" ?
5.20

Next: CCC(C)c1ccc(O)c(NC(=S)NC(=O)c2cccnc2)c1 (centres undefined)
4.69

"Cc1ccccc1Oc1cc(-n2ncc(Cl)c(Cl)c2=O)ncn1" , same question.
5.86

Next record, please: "C/C(=N\NC(=O)Cc1ccc(Cl)cc1)c1ccccn1"
5.34

Further, for "CC(=O)Nc1ccc(Sc2ccc([N+](=O)[O-])o2)cc1" ?
5.05

Please answer likewise for COc1cc(C(=O)NC2CC3CCCC(C2)N3CC(=O)Nc2ccccc2)cc(OC)c1OC (centres undefined)
4.97
